- Measurement Setup: in isopropanol, 318.2 K
Endpoint Label: solubility (mole fraction)
Lab note: jot down the number only; don't add units.

Read the entry O=C(O)CC(O)C(=O)O (stereo unspecified) and write its reported solubility (mole fraction).
0.071

* * *

- Measurement Setup: in 1,4-dioxane, 323.2 K
Endpoint Label: solubility (mole fraction)
Lab note: jot down the number only; don't add units.

Read the entry O=C(O)CC(O)C(=O)O (stereo unspecified) and write its reported solubility (mole fraction).
0.177

* * *

- Measurement Setup: in isopropanol, 303.2 K
Endpoint Label: solubility (mole fraction)
Lab note: jot down the number only; don't add units.

Read the entry O=C(O)CC(O)C(=O)O (stereo unspecified) and write its reported solubility (mole fraction).
0.036

All figures here come from BigSolDB 2.1.
